- TARGET_ENTITY: T1, human PD-1.Fc (human, UniProt Q15116 25-170, limits assumed)
- T1 construct: also called PD-1; Fc protein; PD-1.hFc; not shown: human IgG Fc fragment
- ASSAY: SPR, antibody captured on protein A, PD-1.Fc in flow
RECORDED_ENDPOINT: kon (M⁻¹ s⁻¹)
Your answer should be a plain number; it is taken to be in M⁻¹ s⁻¹.

Solved entries (count: 3):
[
  {
    "BINDER": "NB215 (Fc fusion, not shown: IgG4 constant region of vector pCDNA3.4-IgG4) heavy: EVQVVESGGGLVQAGDSLRLSCAASGGTISGYEMGWFRQAPGKEREFVAGISRNGRSTGYSDSAKDRFTISRDNAKNTVYLQMNSLKPEDTAVYYCAAGLKADYGDSYVDTSTRNYNYWGQGTQVTVSS",
    "kon [M⁻¹ s⁻¹]": 49000
  },
  {
    "BINDER": "NB171 (Fc fusion, not shown: IgG4 constant region of vector pCDNA3.4-IgG4) heavy: QVQLVESGGGLVQAGGSLRLSCAASGRTFSSYAMGWFRQALGKEREWIAGVSMSGRTTYYAAPVKDRFTISRDNAKNTVTLQMNSLKPEDTAVYYCAAGRAQAEIPIMRAQEYDSWGQGTQVTVSS",
    "kon [M⁻¹ s⁻¹]": 49700
  },
  {
    "BINDER": "NB202 (Fc fusion, not shown: IgG4 constant region of vector pCDNA3.4-IgG4) heavy: EVQVVESGGGLVQAGGSLRLSCTASGDTRLASAMGWYRQAPGKERELVAAITNSGLTYYADSVEGRFTISRDSAKNTVYLQMNSLKPEDTAVYYCNAGAPPPGGLGYDESDYWGQGTQVTVSS",
    "kon [M⁻¹ s⁻¹]": 206000
  }
]

q: Provide one value: measured kon of NB147 (Fc fusion, not shown: IgG4 constant region of vector pCDNA3.4-IgG4) heavy: EVQVVESGGGVVQAGDSLRLSCVASGRTFSSVAMGWFRQAPGKEREFVAAISRSGGSAGYSDSVKDRSTISRDNAKNTVYLQMNSLKPEDTAVYFCAASELDFCSTLGCYDYWGQGIQVTFSS
a: 55800

Where do the numbers come from? From patent EP4269437A1.
